meta.source: paper PMC5540273

test system: EPHB4; conditions: concentration: 1 μM, replicates: in singlicate; n = 1;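 also: KINOMEscan kinase panel screen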
Listing of recorded %Inh by entry.

# compound, unit-name, %Inh
measured = [
    ("Fc1ccc(-c2nc3n(c2-c2ccncc2)CCS3)cc1 [GI98581]", "%", 2),
    ("Cc1ccc(NC(=O)Nc2ccc(Cl)cc2)cc1-c1ccc(C(=O)Nc2ccncc2)cc1 [GSK1398472]", "%", 23),
    ("CN1c2ccc(-c3ccc(C(N)=O)cc3)cc2-c2[nH]ncc2S1(=O)=O", "%", 18),
    ("CCn1c(-c2c(N)noc2C)nc2cnccc21 [SB-737856]", "%", 54),
    ("O=c1cc(N2CCOCC2)nc2n(Cc3cccc(Cl)c3Cl)c3ccccc3n12 [GSK2299009]", "%", 0),
    ("Cc1cccc2c(-c3ccncn3)c(-c3ccc(F)cc3)nn12 [GW515532]", "%", 2),
    ("Cc1ccccc1Cn1ccn2c(=O)cc(N3CCOCC3)nc12 [GSK2269905]", "%", 19),
    ("COC(=O)C(NC(=O)NC1CCN(c2ccnc(Nc3ccc(F)cc3)n2)C1)c1ccccc1 (stereo not drawn) [GSK1379712]", "%", 6),
    ("COc1ccc(Nc2nccc(N3CCC(NC(=O)c4cc5ccccc5s4)C3)n2)cc1 (stereo not drawn) [GSK1379738]", "%", 0),
]
